molecular target: Adrenergic receptor alpha-2 (Rattus norvegicus, UniProt P22086+P19328+P22909); assay: Displacement of [3H]rauwolscine from Alpha-2 adrenergic receptor of rat brain membranes; format: cell membranes, Membrane
Could you please mark TRUE for values of Ki below 600 nM and FALSE for values at or above it?

Just wondering, is Ki of COc1cccc2c1CCC=C2c1c[nH]cn1 below 600 nM?
FALSE

Just wondering, is Ki of Cc1cc(C)c2c(c1)C(c1c[nH]cn1)CCC2 (configuration not stated) below 600 nM?
TRUE

Just wondering, is Ki of Cc1cccc2c1CCC2c1c[nH]cn1 (configuration not stated) below 600 nM?
TRUE

Cited source: ChEMBL document CHEMBL1130149
